B1: CPEB3 Ribozyme (parent)
chain: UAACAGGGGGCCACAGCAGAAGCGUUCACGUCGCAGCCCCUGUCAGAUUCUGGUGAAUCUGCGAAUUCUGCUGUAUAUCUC

Variants of: B1
Experiment: self-cleavage, relative activity (ratio to wild type); higher = more cleavage; in vitro, sequencing
Entries and their self-cleavage values follow.
measurement_type: self-cleavage

| sequence_variant | measurement_type | endpoint_value |
| --- | --- | --- |
| A35G G36A | self-cleavage | 0.92 |
| A18U U72A | self-cleavage | 0.19 |
| A35C A45U | self-cleavage | 0.24 |
| C50U U78A | self-cleavage | 1.12 |
| G36C A57U | self-cleavage | 0.13 |
| U48C U78C | self-cleavage | 0.54 |
| U25A U80G | self-cleavage | 0.22 |
| C39U U54A | self-cleavage | 0.95 |
| C11U A45U | self-cleavage | 0.27 |
| U25G A35U | self-cleavage | 0.39 |
| A21G A65U | self-cleavage | 0.24 |
| U54A U67A | self-cleavage | 0.67 |
| A35C A47U | self-cleavage | 0.63 |
| C32U U60C | self-cleavage | 0.18 |
| A2U C62G | self-cleavage | 0.31 |
| A57G C59U | self-cleavage | 0.83 |
| A2U A5G | self-cleavage | 0.71 |
| A13U U80G | self-cleavage | 1.27 |
| U26A C27G | self-cleavage | 0.12 |
| A2G U31C | self-cleavage | 0.41 |
| A35G G73A | self-cleavage | 1.46 |
| A18G A28U | self-cleavage | 0.5 |
| C14A A57U | self-cleavage | 1.14 |
| G22A U51C | self-cleavage | 0.2 |
| A5C C34G | self-cleavage | 0.41 |
| G9A U54A | self-cleavage | 0.13 |
| A2G G36C | self-cleavage | 0.24 |
| U26C U43G | self-cleavage | 0.7 |
